# Target Or System: βCat-ECad (E-Cadherin-βCatenin interaction) (Homo sapiens)
# Assay Text: ELISA based protein-protein interaction assay, βCat-ECad
# Details: Example 1
# IC50 annotations
Readout Kind: IC50

>>> df
                                   compound                          target_or_system  experimental_result
0  O=C(Nc1ccc2oc(=O)ccc2c1)c1ccc(C(=O)Nc2ccc3oc(=O)ccc3c2)cc1 [TGC0012296]  βCat-ECad (E-Cadherin-βCatenin interaction) (Homo sapiens)              > 10 µM
1  COc1ccc(CCNC(=O)c2ccc(C(=O)NCCc3ccc(OC)c(OC)c3)nc2)cc1OC [TGC0011342]  βCat-ECad (E-Cadherin-βCatenin interaction) (Homo sapiens)              > 50 µM
2  COC(=O)c1ccc(NC(=O)c2cc(OC)c(C(=O)Nc3ccc(C(=O)OC)cc3)cc2OC)cc1 [TGC0012302]  βCat-ECad (E-Cadherin-βCatenin interaction) (Homo sapiens)             > 100 µM
3  CC(=O)c1ccc(NC(=O)c2ccc(C(=O)Nc3ccc(C(C)=O)cc3)nc2)cc1 [TGC0011285]  βCat-ECad (E-Cadherin-βCatenin interaction) (Homo sapiens)              > 10 µM
4  O=C(NCc1ccco1)c1ccc(C(=O)NCc2ccco2)nc1 [TGC0011428]  βCat-ECad (E-Cadherin-βCatenin interaction) (Homo sapiens)              > 50 µM

====

# Target Or System: βCat-ECad (E-Cadherin-βCatenin interaction) (Homo sapiens, UniProt P35222)
# Assay Text: ELISA based protein-protein interaction assay, βCat-ECad
# Details: Example 1
pIC50: −log10 of the molar value.
Readout Kind: pIC50

In [3]: df
Out[3]:
                                   compound  experimental_result
0  Cc1nnc(NC(=O)c2ccc(C(=O)Nc3nnc(C)s3)nc2)s1 [TGC0011344]                 4.38
1  CCCC(=O)Nc1ccc(-c2cnc(-c3ccc(NC(=O)CCC)cc3)nc2)cc1 [TGC0011566]               < 4.00
2  COc1cccc(C(=O)Nc2ccc(-c3cnc(-c4ccc(NC(=O)c5cccc(OC)c5)cc4)nc3)cc2)c1 [TGC0011528]               < 4.30
3  O=C(Nc1cccnc1)c1ccc(C(=O)Nc2cccnc2)nc1 [TGC0011423]               < 4.00

====

# pIC50 annotations
# Target Or System: βCat-BCL9 (beta-Catenin/BCL9-BCL9L interaction) (Homo sapiens)
# Sequence (P35222 1-781): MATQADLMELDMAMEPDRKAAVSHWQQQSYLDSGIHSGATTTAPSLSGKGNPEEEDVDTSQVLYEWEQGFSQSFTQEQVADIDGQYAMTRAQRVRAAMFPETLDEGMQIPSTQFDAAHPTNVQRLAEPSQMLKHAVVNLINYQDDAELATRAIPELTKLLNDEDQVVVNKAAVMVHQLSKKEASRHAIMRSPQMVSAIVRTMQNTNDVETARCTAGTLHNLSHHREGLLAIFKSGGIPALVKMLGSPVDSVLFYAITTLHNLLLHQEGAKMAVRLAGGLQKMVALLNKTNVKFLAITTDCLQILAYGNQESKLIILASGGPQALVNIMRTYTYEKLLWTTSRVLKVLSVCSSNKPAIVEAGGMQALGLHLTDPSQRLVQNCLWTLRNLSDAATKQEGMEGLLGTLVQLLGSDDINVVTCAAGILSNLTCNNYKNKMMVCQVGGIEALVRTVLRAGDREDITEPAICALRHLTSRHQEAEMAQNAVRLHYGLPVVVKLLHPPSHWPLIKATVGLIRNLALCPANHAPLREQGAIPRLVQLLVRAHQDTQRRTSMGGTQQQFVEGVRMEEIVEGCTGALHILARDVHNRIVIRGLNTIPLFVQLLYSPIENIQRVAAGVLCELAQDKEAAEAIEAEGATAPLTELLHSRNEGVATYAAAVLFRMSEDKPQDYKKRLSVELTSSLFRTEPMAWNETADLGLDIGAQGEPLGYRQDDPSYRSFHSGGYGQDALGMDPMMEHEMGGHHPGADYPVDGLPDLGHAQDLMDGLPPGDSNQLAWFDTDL
# Assay Text: ELISA based protein-protein interaction assay, βCat-BCL9
# Details: Example 1
pIC50: −log10 of the molar value.
Readout Kind: pIC50

                            substance_smiles                          target_or_system  value_relation_sign  experimental_result
 0  COc1cc(NC(=O)c2ccc(C(=O)Nc3ccc(OC)c(OC)c3)nc2)cc(OC)c1  βCat-BCL9 (beta-Catenin/BCL9-BCL9L interaction) (Homo sapiens)                    =                 5.15
 1  O=C(NCCc1ccccn1)c1ccc(C(=O)NCCc2ccccn2)nc1  βCat-BCL9 (beta-Catenin/BCL9-BCL9L interaction) (Homo sapiens)                    <                 4.00
 2      O=C(c1ccc(C(=O)N2CCOCC2)nc1)N1CCOCC1  βCat-BCL9 (beta-Catenin/BCL9-BCL9L interaction) (Homo sapiens)                    <                 4.30
 3  N#Cc1ccc(NC(=O)c2ccc(C(=O)Nc3ccc(C#N)cc3)cc2)cc1  βCat-BCL9 (beta-Catenin/BCL9-BCL9L interaction) (Homo sapiens)                    =                 5.30
 4  CC(C)(C)C(=O)Nc1cccc(C(=O)Nc2ccc(-c3cnc(-c4ccc(NC(=O)c5cccc(NC(=O)C(C)(C)C)c5)cc4)nc3)cc2)c1  βCat-BCL9 (beta-Catenin/BCL9-BCL9L interaction) (Homo sapiens)                    <                 5.00
 5  CCCC(=O)Nc1ccc(-c2cnc(-c3ccc(NC(=O)CCC)cc3)nc2)cc1  βCat-BCL9 (beta-Catenin/BCL9-BCL9L interaction) (Homo sapiens)                    =                 4.17
 6  COC(=O)c1cc(NC(=O)c2ccc(C(=O)Nc3cc(C(=O)OC)cc(C(=O)OC)c3)nc2)cc(C(=O)OC)c1  βCat-BCL9 (beta-Catenin/BCL9-BCL9L interaction) (Homo sapiens)                    =                 4.42
 7  COc1cccc(C(=O)Nc2ccc(-c3cnc(-c4ccc(NC(=O)c5cccc(OC)c5)cc4)nc3)cc2)c1  βCat-BCL9 (beta-Catenin/BCL9-BCL9L interaction) (Homo sapiens)                    <                 4.30
 8  Cc1nnc(NC(=O)c2ccc(C(=O)Nc3nnc(C)s3)nc2)s1  βCat-BCL9 (beta-Catenin/BCL9-BCL9L interaction) (Homo sapiens)                    =                 4.07
 9  CC(=O)Nc1ccc(NC(=O)c2ccc(C(=O)Nc3ccc(NC(C)=O)cc3)cc2)cc1  βCat-BCL9 (beta-Catenin/BCL9-BCL9L interaction) (Homo sapiens)                    <                 4.30
10  O=C(Nc1ccc(F)c(Cl)c1)c1ccc(C(=O)Nc2ccc(F)c(Cl)c2)nc1  βCat-BCL9 (beta-Catenin/BCL9-BCL9L interaction) (Homo sapiens)                    <                 4.00
11  COC(=O)c1ccc(NC(=O)c2cc(OC)c(C(=O)Nc3ccc(C(=O)OC)cc3)cc2OC)cc1  βCat-BCL9 (beta-Catenin/BCL9-BCL9L interaction) (Homo sapiens)                    =                 4.03
